system.tested: native GSMT (glycine sarcosine N-methyltransferase) (Methanohalophilus portucalensis, UniProt F6KV61)
Construct: monomer and dimer fractions pooled
Sequence (F6KV61 1-263): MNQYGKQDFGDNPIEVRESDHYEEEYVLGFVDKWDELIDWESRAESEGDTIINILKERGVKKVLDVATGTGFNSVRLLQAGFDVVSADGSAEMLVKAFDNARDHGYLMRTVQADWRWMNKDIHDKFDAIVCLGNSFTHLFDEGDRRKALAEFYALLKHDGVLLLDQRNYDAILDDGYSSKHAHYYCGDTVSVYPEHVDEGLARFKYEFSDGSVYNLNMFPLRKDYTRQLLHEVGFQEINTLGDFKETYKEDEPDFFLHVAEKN
run.description: radiometric [methyl-3H]-SAM methyl transfer, charcoal separation
test.settings: read-out: I50
measured.quantity: pIC50
Scale for pIC50: -log10 of concentration given in mol/L; no unit attached.

Name the recorded pIC50 for Nc1ncnc2c1ncn2[C@@H]1O[C@H](CSCC[C@H](N)C(=O)O)[C@@H](O)[C@H]1O . 4.30
